Please provide measured protein stability index for the entries that follow.
B1: PKD2L1 (parent)
chain: TLARCAKDILGFAVMFFIVFFAYA

- Variants of: B1
- run-description: protein stability index of a GFP-peptide fusion (GPS, HEK-293T) (PSI 1-6); higher = more stable;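 note: lentivirally expressed fusions sorted by FACS into six bins by GFP to DsRed ratio, PSI derived from sequencing read proportions per bin multiplied by bin number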
- run-parameters: c terminus: a fixed tail appended
Answer field: number only, no words.

protein stability index reading for D8T : 3.06

protein stability index reading for V19P : 2.99

protein stability index reading for L10V : 2.92
